// data source = patent US4642335A

System: mouse L1210 leukemia
Assay method text: antitumor activity against mouse L1210 leukemia, life prolongation rate
Type: in vivo
Condition set: dose 1 mg/Kg, once a day for five days starting 24 hours after tumor cell injection; control survival day = 100%
Measurement name: Life Prolongation Rate (%)
Express it in %; write the number only.

HBW-22(B): NCS-apoprotein and γ-rhodomycin Y bound together, molar ratio 1:5 (conjugate, UniProt P0A3R9 35-147, looked up, complex with gamma-rhodomycin Y, 1:5) Neocarzinostatin: AAPTATVTPSSGLSDGTVVKVAGAGLQAGTAYDVGQCAWVDTGVLACNPADFSSVTADANGSASTSLTVRRSFEGFLFDGTRWGTVDCTTAACQVGLSDAAGNGPEGVAISFN : 162
HBW-10(B): NCS-apoprotein and daunomycin bound through hydrogen bond and/or hydrophobic bond, molar ratio 1:5 (conjugate, UniProt P0A3R9 35-147, looked up, noncovalent complex with daunomycin, 1:5) Neocarzinostatin: AAPTATVTPSSGLSDGTVVKVAGAGLQAGTAYDVGQCAWVDTGVLACNPADFSSVTADANGSASTSLTVRRSFEGFLFDGTRWGTVDCTTAACQVGLSDAAGNGPEGVAISFN : 270
HBW-21(A): NCS-apoprotein and aclacinomycin A bound together, molar ratio 1:1 (conjugate, UniProt P0A3R9 35-147, looked up, aclacinomycin A conjugate, 1:1) Neocarzinostatin: AAPTATVTPSSGLSDGTVVKVAGAGLQAGTAYDVGQCAWVDTGVLACNPADFSSVTADANGSASTSLTVRRSFEGFLFDGTRWGTVDCTTAACQVGLSDAAGNGPEGVAISFN : 135

// below: Life Prolongation Rate requested for another molecule
Data point: HB-22(A): NCS-apoprotein and γ-rhodomycin Y bound together, molar ratio 1:1 (conjugate, UniProt P0A3R9 35-147, looked up, complex with gamma-rhodomycin Y, 1:1) Neocarzinostatin: AAPTATVTPSSGLSDGTVVKVAGAGLQAGTAYDVGQCAWVDTGVLACNPADFSSVTADANGSASTSLTVRRSFEGFLFDGTRWGTVDCTTAACQVGLSDAAGNGPEGVAISFN ; Life Prolongation Rate = 145
